# tgt: human M1 receptor (hCHRM1) (Homo sapiens, UniProt P11229)
# Sequence (P11229 1-460): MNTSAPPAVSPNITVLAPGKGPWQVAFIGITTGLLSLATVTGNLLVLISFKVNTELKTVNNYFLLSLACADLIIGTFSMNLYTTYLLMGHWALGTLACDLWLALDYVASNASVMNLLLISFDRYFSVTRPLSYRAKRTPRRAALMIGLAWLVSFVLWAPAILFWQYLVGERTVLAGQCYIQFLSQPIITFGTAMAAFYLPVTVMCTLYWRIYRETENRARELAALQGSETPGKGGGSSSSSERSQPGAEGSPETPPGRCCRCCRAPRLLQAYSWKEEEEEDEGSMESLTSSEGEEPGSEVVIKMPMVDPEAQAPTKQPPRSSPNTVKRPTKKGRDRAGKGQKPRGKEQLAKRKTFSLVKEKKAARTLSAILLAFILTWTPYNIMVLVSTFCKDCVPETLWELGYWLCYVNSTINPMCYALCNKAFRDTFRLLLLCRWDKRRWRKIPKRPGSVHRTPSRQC
# experimental protocol: Measurement of M1 receptor positive allosteric modulator (M1PAM) activity, calcium fluorescence (FLIPRtetra) in CHO-K1 cells in the presence of acetylcholine at EC20
# condition label: inflection point of M1PAM activity, in the presence of acetylcholine at EC20 (final 0.6 nM), CHO-K1 cells expressing hCHRM1; read-out: IP value
result type: EC50 (nM)

{"columns": ["compound", "result type", "reported result"],
 "data": [
  ["COCc1ccc(F)c(Oc2nccc3c2C(=O)N(Cc2ccc(-c4ccnc(C)c4)cc2)C3)c1 [Example 291]", "EC50", 34],
  ["Cn1ccc(-c2ccc(CN3Cc4ccnc(Oc5ccc(C(F)(F)F)cc5C#N)c4C3=O)cc2)n1 [Example 416]", "EC50", 13],
  ["Cn1ccc(-c2ccc(CN3Cc4ccnc(Oc5ccc(C(F)(F)F)cc5F)c4C3=O)cc2)n1 [Example 305]", "EC50", 25],
  ["O=C1c2c(ccnc2OCC2CCCO2)CN1Cc1ccc(-c2cnn(CC3CC3)c2)cc1 (centres unmarked) [Example 288]", "EC50", 12],
  ["Cn1cc(-c2ccc(CN3Cc4cccc(O[C@H]5CCC[C@@H]5O)c4C3=O)cc2)nn1 (relative stereo) [Example 235]", "EC50", 14],
  ["NC(=O)c1ccc(CN2Cc3ccnc(Oc4ccc(C(F)(F)F)cc4F)c3C2=O)cc1F [Example 438]", "EC50", 14],
  ["Cn1ccc(-c2ccc(CN3Cc4ncnc(Oc5c(F)cc(F)cc5F)c4C3=O)cc2)n1 [Example 366]", "EC50", 42],
  ["Cc1cc(C#N)cc(F)c1Oc1nccc2c1C(=O)N(Cc1ccc(-c3ccn(C)n3)cc1)C2 [Example 417]", "EC50", 16]
]}
